Tested on: SKBR3
assay text: relative cell number vs DMSO control (72 h) (% of DMSO); higher = less growth inhibition (more cells)
conditions used: sgRNA knockout: sgNT, 100 nM
result type: relative cell number
Numbers only.

# annotated cases, reported relative cell number shown
[
  {
    "compound": "CN/C(=N\\CCSCc1nc[nH]c1C)NC#N",
    "relative cell number": 141
  },
  {
    "compound": "CC(=O)Nc1cccc(-n2c(=O)n(C3CC3)c(=O)c3c(Nc4ccc(I)cc4F)n(C)c(=O)c(C)c32)c1",
    "relative cell number": 72.4
  },
  {
    "compound": "COC(=O)Nc1nc2cc(C(=O)c3ccccc3)ccc2[nH]1",
    "relative cell number": 59.8
  },
  {
    "compound": "Cc1ccccc1-n1c(Cn2cnc3c(N)ncnc32)nc2cccc(C)c2c1=O",
    "relative cell number": 107
  }
]

Below is a list of compounds. For each, state its recorded relative cell number.
1. CCn1c(=O)c2c(nc(/C=C/c3ccc(OC)c(OC)c3)n2C)n(CC)c1=O
2. CC(C)(C#N)c1ccc(N2C(=O)OCc3cnc4ccc(-c5cnc6ccccc6c5)cc4c32)cc1
3. CC(C)C[C@H](NC(=O)CNC(=O)c1cc(Cl)ccc1Cl)B(O)O
4. N[C@@H](CC(=O)N1CCn2c(nnc2C(F)(F)F)C1)Cc1cc(F)c(F)cc1F
5. COCC[n+]1c2c(n(Cc3cnccn3)c1C)C(=O)c1ccccc1C2=O
6. O=C(Nc1ccc([N+](=O)[O-])cc1Cl)c1cc(Cl)ccc1O [Niclosamide]
7. CN1CCc2c(c3ccccc3n2Cc2ccc(C(=O)NO)cc2)C1
8. CCOc1ccccc1-n1c(C(C)N2CCN(C(=O)COc3ccc(Cl)cc3)CC2)nc2ccccc2c1=O (stereo not drawn)

[84.2, 100, 54.1, 89.5, 6.9, 83.6, 59.2, 85.9]

Below is a list of compounds. For each, state its recorded relative cell number.
1. C=CC(=O)Nc1cc2c(Nc3ccc(F)c(Cl)c3)ncnc2cc1OCCCN1CCOCC1
2. COc1cc(CCc2cc(NC(=O)c3ccc(N4CC(C)NC(C)C4)cc3)n[nH]2)cc(OC)c1 (stereo not drawn)
3. CC(C)c1cc(-c2n[nH]c(=O)n2-c2ccc3c(ccn3C)c2)c(O)cc1O
4. Cn1c(CCCC(=O)O)nc2cc(N(CCCl)CCCl)ccc21
5. O=C(c1cc(Cc2n[nH]c(=O)c3ccccc23)ccc1F)N1CCN(C(=O)C2CC2)CC1
6. CC(C)C[C@H](NC(=O)[C@H](CCc1ccccc1)NC(=O)CN1CCOCC1)C(=O)N[C@@H](Cc1ccccc1)C(=O)N[C@@H](CC(C)C)C(=O)[C@@]1(C)CO1

1. 56.6
2. 83
3. 24.1
4. 115
5. 111
6. 11.2

###

Assign relative cell number to each entry below.
Test system: BT-20
assay text: relative cell number vs DMSO control (72 h) (% of DMSO); higher = less growth inhibition (more cells)
conditions used: sgRNA knockout: sgNT, 100 nM
Give bare numbers.

# annotated cases, reported relative cell number shown
[
  {
    "compound": "COc1cc2c(Oc3ccc4[nH]c(C)cc4c3F)ncnc2cc1OCCCN1CCCC1 [Cediranib]",
    "relative cell number": 100
  },
  {
    "compound": "C=C(c1ccc(C(=O)O)cc1)c1cc2c(cc1C)C(C)(C)CCC2(C)C [Bexarotene]",
    "relative cell number": 119
  },
  {
    "compound": "CN(Cc1cnc2nc(N)nc(N)c2n1)c1ccc(C(=O)N[C@@H](CCC(=O)O)C(=O)O)cc1 [Methotrexate]",
    "relative cell number": 80.6
  },
  {
    "compound": "CC(C)(C)c1ccc(S(=O)(=O)NCc2ccc(C(=O)Nc3cccnc3)cc2)cc1 [STF31]",
    "relative cell number": 96.7
  },
  {
    "compound": "CC(C)CC(=O)Nc1n[nH]c2c1CN(C(=O)C1CCN(C)CC1)C2(C)C",
    "relative cell number": 66.5
  }
]

Below is a list of compounds. For each, state its recorded relative cell number.
1. COc1cccc2c1C(=O)c1c(O)c3c(c(O)c1C2=O)C[C@@](O)(C(=O)CO)C[C@@H]3O[C@H]1C[C@H](N)[C@H](O)[C@H](C)O1 [Doxorubicin]
2. Oc1cccc(-c2nc(N3CCOCC3)c3oc4ncccc4c3n2)c1 [PI103]
3. Cc1cc2c(F)c(Oc3ncnn4cc(OC[C@@H](C)O)c(C)c34)ccc2[nH]1 [Brivanib]

1: 46; 2: 124; 3: 78.5

###

Test system: BT-20
assay text: relative cell number vs DMSO control (72 h) (% of DMSO); higher = less growth inhibition (more cells)
conditions used: sgRNA knockout: sgNT, 1000 nM
Assign relative cell number to each entry below.
Give bare numbers.

[
  {
    "compound": "CN(C)C(=O)c1ccc(S(=O)(=O)c2ccc(NC(=O)[C@@](C)(O)C(F)(F)F)c(Cl)c2)cc1",
    "target desc": "BT-20",
    "reported measurement": 102
  },
  {
    "compound": "Cc1cc2c(F)c(Oc3ncnn4cc(OC[C@@H](C)O)c(C)c34)ccc2[nH]1",
    "target desc": "BT-20",
    "reported measurement": 109
  },
  {
    "compound": "O=C1NC(=O)[C@@H](c2cn3c4c(cccc24)CCC3)[C@@H]1c1c[nH]c2ccccc12 [Tivantinib]",
    "target desc": "BT-20",
    "reported measurement": 53
  }
]

Below is a list of compounds. For each, state its recorded relative cell number.
1. OCc1ccc(-c2ccc(-c3ccc(CO)s3)o2)s1
2. CC(C)(C#N)c1cc(Cn2cncn2)cc(C(C)(C)C#N)c1
3. Cc1ccc(NC(=O)c2ccc(CN3CCN(C)CC3)cc2)cc1Nc1nc(-c2cccnc2)cs1

1: 24.9; 2: 114; 3: 95.2

###

System: BT-20
assay text: relative cell number vs DMSO control (72 h) (% of DMSO); higher = less growth inhibition (more cells)
conditions used: sgRNA knockout: sgNT, 100 nM
Note to self: values exactly at 100 are TRUE. So relative cell number at or above 100 is TRUE, below is FALSE.

A selection of reference data follows.
[
  {
    "compound": "CS(=O)(=O)c1cccc(CNc2nc(Nc3ccc4c(c3)CCC(=O)N4)ncc2C(F)(F)F)c1",
    "class label": "TRUE"
  },
  {
    "compound": "Clc1ccc(C2(c3ccc(-c4cn[nH]c4)cc3)CCNCC2)cc1 [AT7867]",
    "class label": "TRUE"
  },
  {
    "compound": "Cc1ccc(S(=O)(=O)OCC(=O)Nc2ccc(C(=O)O)c(O)c2)cc1",
    "class label": "TRUE"
  },
  {
    "compound": "CCOc1ccccc1-n1c(C(C)N2CCN(C(=O)COc3ccc(Cl)cc3)CC2)nc2ccccc2c1=O (centres undefined) [Erastin]",
    "class label": "FALSE"
  },
  {
    "compound": "CC(C)c1cc(-c2n[nH]c(=O)n2-c2ccc3c(ccn3C)c2)c(O)cc1O [Ganetespib]",
    "class label": "FALSE"
  }
]

Item `Cc1ccc(C(=O)N(CCCN)[C@@H](c2oc3cc(Cl)ccc3c(=O)c2Cc2ccccc2)C(C)C)cc1` with relative cell number of 100 or above? FALSE

Item O=[N+]([O-])c1ccc(O)c2ncccc12 [Nitroxoline] with relative cell number of 100 or above? FALSE

###

Test system: SKBR3
assay text: relative cell number vs DMSO control (72 h) (% of DMSO); higher = less growth inhibition (more cells)
conditions used: sgRNA knockout: sgNT, 10 nM
Assign relative cell number to each entry below.
Give bare numbers.

[
  {
    "compound": "CC1(C)CCC(c2ccc(Cl)cc2)=C(CN2CCN(c3ccc(C(=O)NS(=O)(=O)c4ccc(N[C@H](CCN5CCOCC5)CSc5ccccc5)c(S(=O)(=O)C(F)(F)F)c4)cc3)CC2)C1",
    "relative cell number": 74.6
  },
  {
    "compound": "O=P1(NCCCl)OCCCN1CCCl (centres undefined) [Ifosfamide]",
    "relative cell number": 74.2
  },
  {
    "compound": "CC(C)(C)c1ccc(S(=O)(=O)NCc2ccc(C(=O)Nc3cccnc3)cc2)cc1",
    "relative cell number": 97.4
  }
]

Would you kindly look at the next entry?
Form field: reported relative cell number of `COc1ccc(-c2ccc3c(N4CCOCC4)nc(N4C[C@@H](C)O[C@@H](C)C4)nc3n2)cc1CO` 84.2

###

System: BT-20
assay text: relative cell number vs DMSO control (72 h) (% of DMSO); higher = less growth inhibition (more cells)
conditions used: sgRNA knockout: sgNT, 100 nM
result type: relative cell number
One number for each entry.

# annotated cases, reported relative cell number shown
[
  {
    "compound": "CC(C)[C@H](O)C(=O)N[C@@H](C)C(=O)N[C@@H]1C(=O)N(C)CCc2ccccc21 [Semagacestat]",
    "relative cell number": 86.5
  },
  {
    "compound": "O=C(c1cc(Cc2n[nH]c(=O)c3ccccc23)ccc1F)N1CCN(C(=O)C2CC2)CC1 [Olaparib]",
    "relative cell number": 85.9
  },
  {
    "compound": "CN/C(=N\\CCSCc1nc[nH]c1C)NC#N [Cimetidine]",
    "relative cell number": 108
  },
  {
    "compound": "CN1CCN(CCCN2c3ccccc3Sc3ccc(C(F)(F)F)cc32)CC1 [Trifluoperazine]",
    "relative cell number": 90.7
  },
  {
    "compound": "OCc1ccc(-c2ccc(-c3ccc(CO)s3)o2)s1",
    "relative cell number": 77.9
  },
  {
    "compound": "O=C1NC(=O)/C(=C/c2ccc3nccc(-c4ccncc4)c3c2)S1",
    "relative cell number": 81.1
  },
  {
    "compound": "Cc1cc2c(C(C)C)c(O)c(O)c(C=O)c2c(O)c1-c1c(C)cc2c(C(C)C)c(O)c(O)c(C=O)c2c1O [Gossypol]",
    "relative cell number": 80.1
  },
  {
    "compound": "N.N.[Cl][Pt][Cl] [Cisplatin]",
    "relative cell number": 80.4
  },
  {
    "compound": "CC(C)(C(=O)NCC(F)(F)C(F)(F)F)C(=O)N[C@@H]1C(=O)Nc2ccccc2-c2ccccc21",
    "relative cell number": 109
  },
  {
    "compound": "Nc1nc(OCc2cc(Br)cs2)c2[nH]cnc2n1 [Lomeguatrib]",
    "relative cell number": 115
  }
]

Below is a list of compounds. For each, state its recorded relative cell number.
1. C[C@@H](Oc1cc(-c2cnn(C3CCNCC3)c2)cnc1N)c1c(Cl)ccc(F)c1Cl [Crizotinib]
2. COc1cc(-n2c(=S)[nH]c3ccccc3c2=O)c(Cl)cc1Cl [Mdivi1]
3. CCNC(=O)c1noc(-c2cc(C(C)C)c(O)cc2O)c1-c1ccc(CN2CCOCC2)cc1 [NVPAUY922]
4. Cc1sc2c(c1C)C(c1ccc(Cl)cc1)=N[C@@H](CC(=O)OC(C)(C)C)c1nnc(C)n1-2 [(+)-JQ1]
5. Cn1nnc2c(C(N)=O)ncn2c1=O [Temozolomide]
6. C[C@@H]1CN(CC(=O)Nc2ccc3c(c2)Cc2cccc(-c4cc(=O)cc(N5CCOCC5)o4)c2S3)C[C@H](C)O1
7. CCOC(=O)[C@@]1(CCCCCCOc2ccc(Cl)cc2)CO1 [Etomoxir]
8. CC(=O)c1c(C)c2cnc(Nc3ccc(N4CCNCC4)cn3)nc2n(C2CCCC2)c1=O [Palbociclib]

[100, 98.8, 48, 108, 111, 119, 90.3, 41.8]

Below is a list of compounds. For each, state its recorded relative cell number.
1. O=C1NC(=O)[C@@H](c2cn3c4c(cccc24)CCC3)[C@@H]1c1c[nH]c2ccccc12 [Tivantinib]
2. N[C@@H](CC(=O)N1CCn2c(nnc2C(F)(F)F)C1)Cc1cc(F)c(F)cc1F [Sitagliptin]

1: 83.6; 2: 90.6
